# test-name: In vitro peptide stability in RPMI medium with 25% (v/v) human serum (RP-HPLC)
# Type: in vitro ADME
# run-conditions: RPMI medium with 25% (v/v) heat-inactivated human AB serum, 37° C., up to 24 hours, read-out: fraction of intact tR1 (stable)
Peptide text beside a SMILES is read from it.
measure: remaining at 24 h, 50 μg/mL

Exercise: Need remaining at 24 h, 50 μg/mL of CC[C@H](C)[C@H](NC(=O)[C@H](CCCCN)NC(=O)[C@H](CO)NC(=O)[C@H](CCCCN)NC(=O)[C@@H](NC(=O)[C@H](CC(N)=O)NC(C)=O)C(C)C)C(=O)NCC(=O)N[C@@H](CO)C(=O)N[C@H](C(=O)N[C@@H](CCC(=O)O)C(=O)N[C@@H](CC(N)=O)C(=O)N[C@@H](CC(C)C)C(=O)N[C@@H](CCCCN)C(N)=O)[C@@H](C)O [tR1, NVKSKIGSTENLK] (Ac-NVKSKIGSTENLK-NH2) , thanks.
Solution: > 90%

Source: patent US20210147481A1
